Hey, just so you know, these numbers are from PubChem BioAssay.

Assay: antimalarial activity against Dd2 strain (AID 2302);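 also: 0% = DMSO untreated growth and 100% = chloroquine plus artemisinin killed control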
Settings: P. falciparum Dd2 in RBCs, LDH growth readout, 72 h; at 2 µM
Activity calls are given as the source filed them.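 The calls were made as follows: active = growth inhibition above 50% at the single 2 µM test dose, taken to imply half-maximal potency below 2 µM; inactive = the rest.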
Bench note: report the call from T = active, F = inactive

compound: FC(F)(F)c1ccc2nc(-c3ccc(-c4cccc(CNCCc5cccnc5)c4)s3)[nH]c2c1
group.label: T
//
compound: O=S(=O)(c1ccccc1OC(F)(F)F)C1C[C@H]2CC[C@@H](C1)N2S(=O)(=O)c1cccc(C(F)(F)F)c1 (stereo partly drawn)
group.label: T
//
compound: COc1ccc(CNC2Cc3ccccc3C2)cc1-c1ccc(S(=O)(=O)NCCN2CCCC2)s1
group.label: T

// param item: "COc1ccc2nccc([C@@H](O)CN3CCC(NCCOc4ccccc4C#N)CC3)c2c1" ; yields the recorded call T

Also, "CCCCCCN1CCC(CNCc2cccc(Cl)c2)CC1" please. F

Another compound to check: "COc1cccc2cc(C(=O)N[C@@H](CC(C)C)C(=O)N[C@H](/C=N/NC(=O)c3ccccc3)Cc3cnc[nH]3)oc12" T

====

Assay: human hepatoma cell viability loss – ATP luminescence, cytotoxicity control for P. falciparum antimalarial project, primary screen (AID 2303);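 also: 0% = DMSO wells and 100% = digitonin-killed cells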
Conditions: HepG2 viability, 24-48 h, at 10 µM
Calls of active or inactive are those of the source.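 The calls were made as follows: active = inhibition above 50%; inactive = the rest.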
Your answer must be one of the following: 1 for active, -1 for inactive

compound: NC(N)=NC(=O)Nc1cc(Cl)c(Cl)c(Cl)c1
group.label: -1
--
compound: Cc1cc(N2CCOCC2)nc2ccc(NC(=O)c3ccc(Cl)c([N+](=O)[O-])c3)cc12
group.label: -1
--
compound: Nc1nc(N)c2c(n1)CCC(c1ccccc1)C2 (stereo not given)
group.label: 1
--
compound: CC(=O)Nc1ccc(OCCCCN(Cc2ccccc2C(F)(F)F)c2ccc(C#N)c(C(F)(F)F)c2)cc1
group.label: -1
--
compound: Fc1ccccc1COc1ccc(Nc2ncnc3ccc(-c4nnc(C(F)(F)F)o4)cc23)cc1Cl
group.label: -1

Per the assay record, what outcome was assigned to "Cc1cccc(CNc2ncc(C)c(NCCC(=O)Nc3ccccc3)n2)c1" ? -1

How about "Nc1cccc(CNCc2cccc(-c3cccc(-c4nc5ccc(F)cc5[nH]4)c3)c2)c1" ? -1

Repeat with "COc1ccc(CCN(C)CCCN2CCC(NC(=O)c3cccc4c(=O)c5ccccc5sc34)CC2)cc1OC" 1

Now the compound O=C(NC(NC(=S)Nc1ccc([N+](=O)[O-])cc1)C(Cl)(Cl)Cl)c1cccc(Cl)c1 (stereo not given) -1

Also "Cc1ccc(NC(=O)c2ccc(CN3CCCN(Cc4cccc(O)c4)CC3)cc2)cc1F" ? -1

====

Recorded inhibition, one value per entry.
Target: L-lactate dehydrogenase (Plasmodium falciparum (isolate CDC / Honduras)) (UniProt Q27743)
Sequence (Q27743 whole entry, looked up): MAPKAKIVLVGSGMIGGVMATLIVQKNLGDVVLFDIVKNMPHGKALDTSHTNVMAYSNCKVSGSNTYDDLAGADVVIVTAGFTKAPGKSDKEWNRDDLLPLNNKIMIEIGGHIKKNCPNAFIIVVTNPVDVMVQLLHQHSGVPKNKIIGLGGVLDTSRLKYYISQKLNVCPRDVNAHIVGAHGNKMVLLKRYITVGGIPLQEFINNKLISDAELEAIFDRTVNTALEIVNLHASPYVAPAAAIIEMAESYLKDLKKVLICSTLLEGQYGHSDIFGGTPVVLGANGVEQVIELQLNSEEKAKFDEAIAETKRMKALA
Assay: PfLDH activity inhibition – cell lysate, 3D7 strain, counter-screen for P. falciparum growth inhibition project (AID 2304);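 also: 0% = vehicle and 100% = reference inhibitor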
Details: P. falciparum 3D7 crude extract, LDH APAD/NBT absorbance; at 2 µM; hits give high values
The source made the active and inactive calls. The rule behind the calls is not given here.

compound: CC(C)C[C@H](Nc1ccnc(NCC2CCCCC2)n1)C(=O)Nc1ccccc1
study.system: L-lactate dehydrogenase (Plasmodium falciparum (isolate CDC / Honduras)) (UniProt Q27743)
inhibition: 2% (inactive)

compound: CCCCCCN1CCC(NCc2cccc3ccccc23)CC1
study.system: L-lactate dehydrogenase (Plasmodium falciparum (isolate CDC / Honduras)) (UniProt Q27743)
inhibition: 0% (inactive)

compound: COc1ccc(S(=O)(=O)N2CCOCC2)cc1NC(=O)c1cc2ccccc2o1
study.system: L-lactate dehydrogenase (Plasmodium falciparum (isolate CDC / Honduras)) (UniProt Q27743)
inhibition: -2% (inactive)

compound: CCn1c(-c2nonc2N)nc2cnc(Oc3cccc(NC(=O)c4ccc(OCCN(C(C)C)C(C)C)cc4)c3)cc21
study.system: L-lactate dehydrogenase (Plasmodium falciparum (isolate CDC / Honduras)) (UniProt Q27743)
inhibition: -6% (inactive)

Can you share its inhibition? I mean this compound: "Oc1ccc(CCCNc2nc(NCc3cccc4ccccc34)nc(NC3CCNCC3)n2)cc1" 1% (inactive)

Then what about the compound "CCCCCCOc1ccc(C(=O)N(Cc2ccccc2)c2c(-c3ccccc3)nc3cc(C)ccn23)cc1" ? 3% (inactive)

Do the same for Cc1ccc2c(c1)c(-c1ccccc1)c(-c1ccccc1)n2CC(O)CN1CCN(CC=Cc2ccccc2)CC1 (stereo not given) please 6% (inactive)

Proceed to "Cc1cccc2[nH]c(-c3ccc(-c4cccc(CNCc5cccc(N)c5)c4)s3)nc12" -4% (inactive)

Here is the next compound: "Nc1ncc(-c2ccc(F)cc2)c2ccc(-c3cccc(F)c3)cc12" 3% (inactive)

Further, for "O=C(/C=C/c1ccc(Cl)c(Cl)c1)N1CCC(CN2CCC(c3c[nH]c4cnccc34)CC2)CC1" ? 7% (inactive)

====

Test: inhibition of 3D7 malaria parasite growth – strain 3D7 (AID 2306);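 also: 0% = DMSO wells and 100% = chloroquine plus artemisinin control wells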
Conditions: P. falciparum 3D7 erythrocytic growth, LDH absorbance, 72 h; at 2 µM; hits give high values
Reported growth inhibition values for the following molecules.
Provide only the numeric value, understood in %.

Consider the worked cases shown below.
molecule: COc1ccc2nccc([C@@H](O)CN3CCC(NC(=O)/C=C/c4c[nH]c5c(C)cccc45)CC3)c2c1
growth inhibition, %: 101
//
molecule: Cc1cnc(-c2ccc(NC(=O)N3CCc4cc5nccc(N6CCN7CCC[C@H]7C6)c5cc43)c3ccccc23)o1
growth inhibition, %: 100
//
molecule: NC(=O)c1ccsc1NC(=O)CNC(c1ccc(F)cc1)c1cccs1 (centres undefined)
growth inhibition, %: 92
//
molecule: COc1ccccc1C1CCN(C2CCC(NC(=O)/C=C/c3ccc4c(c3)OC(F)(F)O4)CC2)CC1 (centres undefined)
growth inhibition, %: 98
//
molecule: CC(C)CN1CCCN(Cc2cccc(NC(=O)c3ccc(-c4ccccc4)cc3)c2)CC1
growth inhibition, %: 99
//
molecule: CCN1CCC(N(CCCCCCc2ccc(C(F)(F)F)cc2)C(=O)Cn2c(CCc3cccc(F)c3F)cc(=O)c3ccccc32)CC1
growth inhibition, %: 88
//
molecule: CC(C)C[C@H](Nc1ccnc(NCC2CCCCC2)n1)C(=O)Nc1ccccc1
growth inhibition, %: 87
//
molecule: CCCCCN1C(=O)C(c2ccccc2)(c2ccccc2)N=C1N
growth inhibition, %: 97

Alright, here's another molecule for you.
Given the molecule CCCCCCNC(=O)C1Cc2c([nH]c3cc(Cl)ccc23)C2(CCN(Cc3ccccc3)CC2)N1 (centres undefined) , what is its reported growth inhibition? 90

====

Assay: antimalarial activity against Dd2 strain (AID 2302);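 also: 0% = DMSO untreated growth and 100% = chloroquine plus artemisinin killed control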
Details: P. falciparum Dd2 in RBCs, LDH growth readout, 72 h; at 2 µM
Activity calls are given as the source filed them.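 How the source made its calls: active means growth inhibition above 50% at the single 2 µM test dose, taken to imply half-maximal potency below 2 µM; inactive means the rest.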
Reply using exactly one outcome from active, inactive

compound: Clc1ccc(-c2ccc(C=NNc3nc(Nc4ccccc4)nc(Nc4ccccc4)n3)o2)cc1Cl
group.label: active
--
compound: Cc1ccc(-n2cc(CNCCCn3ccnc3)c(-c3cccc(C)c3)n2)cc1
group.label: inactive
--
compound: Cc1cc(O)c(CN(C)Cc2ccc(N(C)C)cc2)cc1C(C)C
group.label: active
--
compound: O=C(Cc1ccc(Cl)cc1)NC1CCN(c2ccnc3cc(Cl)ccc23)C1 (stereo not given)
group.label: active

Alright, here's another compound for you.
For CC(Oc1ccc(NC(=O)c2cccs2)cc1)C(=O)c1ccc(Cl)cc1 (stereo not given) , which call appears in the assay record? active

====

Experiment: human hepatoma cell viability loss – ATP luminescence, cytotoxicity control for P. falciparum antimalarial project, primary screen (AID 2303);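 also: 0% = DMSO wells and 100% = digitonin-killed cells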
Conditions: HepG2 viability, 24-48 h, at 10 µM, hits give high values
Class boundaries, taken from values of inhibition, are as follows: lowest (below 20%), middle (20% to below 40%), highest (40% or more)

See these solved cases before continuing.
molecule: CS(=O)(=O)N1CC2(CCN(CCC(NC(=O)Nc3ccccc3)c3ccc(Cl)c(Cl)c3)CC2)c2ccccc21 (centres undefined)
group.label: middle
//
molecule: CCN(CC)CCN(Cc1ccc(-c2ccc(C(F)(F)F)cc2)cc1)C(=O)Cn1c(CCC2CCCCC2)nc(=O)c2ccccc21
group.label: middle

Which class holds "CN(C)Cc1ccc2cc(NC(=O)c3ccc(-c4ccc(Cl)cc4)cc3)ccc2n1" ? highest

Now consider "CCOC(=O)NC1=NC(C)(C)N(OCc2ccc(Cl)c(Cl)c2)C(N)=N1" . highest

====

Assay: human hepatoma cell viability loss – ATP luminescence, cytotoxicity control for P. falciparum antimalarial project, primary screen (AID 2303);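 also: 0% = DMSO wells and 100% = digitonin-killed cells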
Settings: HepG2 viability, 24-48 h, at 10 µM
Active and inactive are the calls of the source.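 How the source made its calls: active means inhibition above 50%; inactive means the rest.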
Respond using exactly one of the listed classes: t (active), f (inactive)

For orientation, consider the following solved cases.
molecule: CC(NC(C)c1cccc(Cl)c1)C(=O)Nc1cc(C(F)(F)F)ccc1N1CCOCC1 (centres undefined)
group.label: f

molecule: COc1cc(NC(=O)Nc2ccc([N+](=O)[O-])cc2OC)c(OC)cc1Cl
group.label: f

molecule: Cc1noc(C)c1-c1cccc(CNCc2ccc(-c3ccc(-c4nc5ccc(F)cc5[nH]4)s3)cc2)c1
group.label: f

molecule: Cc1cccc2[nH]c(-c3ccc(-c4ccc(CN5CCN(c6ccncc6)CC5)cc4)cc3)nc12
group.label: t

molecule: O=C(/C=C/c1ccc(Cl)cc1)NCCCCCN1CCC(C(=O)Nc2ccc(Cl)c(Cl)c2)CC1
group.label: f

molecule: N#Cc1ccc(C(=O)Nc2cccc(-c3ccc(CN4CCCC4)cc3)c2)cc1
group.label: f

Which outcome did this test record for the molecule "N#Cc1cnc2cc(-c3cnc(CNCCN4CCOCC4)s3)ccc2c1Nc1ccc(Oc2ccccc2)cc1" ? f

Input "CCc1c(CCNCCCCCCNCCc2ccc([N+](=O)[O-])cc2)ccc(O)c1O" f

Please give the result for "COCCNCc1cccc(-c2cc3nccc(Nc4ccc(Oc5ccccc5)cc4)c3cc2Cl)c1" too. f
